Target: T1, cynomolgus TIGIT expressed on CHO-K1 cells (cynomolgus, UniProt A0A7N9I9V4 89-312)
T1 construct: whole, on cells; also called cynomolgus TIGIT over-expressing cell line
T1 sequence (A0A7N9I9V4 entry or part of it): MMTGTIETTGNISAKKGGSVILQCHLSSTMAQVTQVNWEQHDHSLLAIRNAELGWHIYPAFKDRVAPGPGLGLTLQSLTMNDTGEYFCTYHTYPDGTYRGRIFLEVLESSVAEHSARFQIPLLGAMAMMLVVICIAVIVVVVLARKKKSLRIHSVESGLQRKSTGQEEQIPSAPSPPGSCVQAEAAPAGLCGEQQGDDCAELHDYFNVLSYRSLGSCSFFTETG
Test: flow cytometry on CHO-K1 cells expressing cynomolgus TIGIT
EXPERIMENTAL_ENDPOINT: EC50 (nM)
Only the number, expressed in nM, is required.

Name the recorded EC50 for TIGIT-3 chimeric antibody (antibody, human IgG1, kappa, V domains shown, also called 3VH + 3VL) VH: EVQLVESGGGLVQPGGSLKLSCAASGFTFSSYGMSWVRQTPDKRLELVATIKSDGGSTNLPDSVKGRFTISRDNAKNTLHLQMSSLKSEDTAMYYCVRGYFDYWGQGTSVTVSS VL: DIVMTQSHKFMSTSVGDRVSITCKASQDVKTAVAWYQQKPGQSPKLLIYWSSTRHTGVPDRFTGSRSLTDHTLTISSVQAEDLALYYCQQYYSTPYTFGGGTKLELKR .
2
